# experimentDescription: Metabolic stability in rat plasma assessed as compound remaining at 1 mg/ml measured after 48 hrs by HPLC analysis
# Format: ADME, cell-free
# conditionParameters: read-out: Stability
attributeMeasured: remaining at 48 h, 1 mg/ml

Query :: Give the value of remaining at 48 h, 1 mg/ml reported for the following: CCC(CC)CN1CCN(C(=O)Nc2cc(Oc3ccc(F)cc3)cc(Oc3ccc(C(=O)NC)cc3)c2)CC1
Result :: 93%

---

Could you please report measured IC50 for the items listed next?
# System: HCT-116
# experimentDescription: cells
# conditionParameters: Homo sapiens, HCT-116, 48 h
# Description: Reversal of 5-FU resistance in human HCT-116 cells overexpressing DPD assessed as reduction in 5-Fluorouracil IC50 at 2 uM incubated for 48 hrs (Rvb = 1836.66 +/- 87.95 %)
Expressed in µM, but write only the number.

Query :: Specify IC50 for CC(C)CC1(O)CCN(C(=O)Nc2cc(Oc3ccc(F)cc3)cc(Oc3ccc(C(C)(C)C(=O)O)cc3)c2)C1 (configuration not stated) and stop.
Result :: 268

Query :: Tell me IC50 reported for CCC(CC)CN1CCN(C(=O)Nc2cc(Oc3ccc(F)cc3)cc(Oc3ccc(C(=O)NC)cc3)c2)CC1
Result :: 56.4

---

Kd data for Sphingosine 1-phosphate receptor 5 (Homo sapiens, UniProt Q9H228) follow.

Query :: Identify Kd associated with the compound CCC(CC)CN1CCN(C(=O)Nc2cc(Oc3ccncc3)cc(Oc3ccc(F)cc3)c2)CC1
Result :: > 100 nM

Query :: Please report the measured Kd for CCC(CC)CC1(O)CCN(C(=O)Nc2cc(Oc3ccncc3)cc(Oc3ccc(F)cc3)c2)CC1
Result :: > 100 nM
